Experiment: clinical
Details: human, in vivo
Structures can show the parent of a compound that is named as a salt.
assay-readout: concentration at 1 min

CC1CCC(C(C)C)C(O)C1 (stereo not shown) = 25 µg/mL
CC(C)=CCC/C(C)=C/CO [GRA1, trans-3,7-dimethyl-2,6-octadien-1-ol] = 6 µg/mL
CC1(C)[C@@H](O[C@H]2O[C@H](C(=O)O)[C@@H](O)[C@H](O)[C@H]2O[C@@H]2O[C@H](C(=O)O)[C@@H](O)[C@H](O)[C@H]2O)CC[C@]2(C)[C@H]3C(=O)C=C4[C@@H]5C[C@@](C)(C(=O)O)CC[C@]5(C)CC[C@@]4(C)[C@]3(C)CC[C@@H]12 [GR, Glycyrrhizic Acid, Monoammonium salt] = 3100 µg/mL
CC1(C)[C@@H](O)CC[C@]2(C)[C@H]3C(=O)C=C4[C@@H]5C[C@@](C)(C(=O)O)CC[C@]5(C)CC[C@@]4(C)[C@]3(C)CC[C@@H]12 = 1.8 µg/mL

---

Assay: clinical
Conditions: human, in vivo
Structures can show the parent of a compound that is named as a salt.
assay-readout: concentration at 5 min (ng/mL)

CC1(C)[C@@H](O)CC[C@]2(C)[C@H]3C(=O)C=C4[C@@H]5C[C@@](C)(C(=O)O)CC[C@]5(C)CC[C@@]4(C)[C@]3(C)CC[C@@H]12 = 1600
CC(C)=CCC/C(C)=C/CO [GRA1, trans-3,7-dimethyl-2,6-octadien-1-ol] = 7000
CC1(C)[C@@H](O[C@H]2O[C@H](C(=O)O)[C@@H](O)[C@H](O)[C@H]2O[C@@H]2O[C@H](C(=O)O)[C@@H](O)[C@H](O)[C@H]2O)CC[C@]2(C)[C@H]3C(=O)C=C4[C@@H]5C[C@@](C)(C(=O)O)CC[C@]5(C)CC[C@@]4(C)[C@]3(C)CC[C@@H]12 [GR, Glycyrrhizic Acid, Monoammonium salt] = 55000
CC1CCC(C(C)C)C(O)C1 (stereo not shown) = 24000

---

Assay: clinical
Conditions: human, in vivo
Where a name gives a salt, the structure may show the parent alone.
List of concentration at 25 min values.
assay-readout: concentration at 25 min

CC1(C)[C@@H](O[C@H]2O[C@H](C(=O)O)[C@@H](O)[C@H](O)[C@H]2O[C@@H]2O[C@H](C(=O)O)[C@@H](O)[C@H](O)[C@H]2O)CC[C@]2(C)[C@H]3C(=O)C=C4[C@@H]5C[C@@](C)(C(=O)O)CC[C@]5(C)CC[C@@]4(C)[C@]3(C)CC[C@@H]12 [GR, Glycyrrhizic Acid, Monoammonium salt] = 10000 ng/mL
CC1(C)[C@@H](O)CC[C@]2(C)[C@H]3C(=O)C=C4[C@@H]5C[C@@](C)(C(=O)O)CC[C@]5(C)CC[C@@]4(C)[C@]3(C)CC[C@@H]12 = 2300 ng/mL

---

Assay: clinical
Conditions: human, in vivo
Counter-ions that a name gives are not always drawn.
assay-readout: concentration at 2.5 min

CC1(C)[C@@H](O)CC[C@]2(C)[C@H]3C(=O)C=C4[C@@H]5C[C@@](C)(C(=O)O)CC[C@]5(C)CC[C@@]4(C)[C@]3(C)CC[C@@H]12 [GA, 18β-Glycyrrhetinic acid] = 1.5 µg/mL
CC1(C)[C@@H](O[C@H]2O[C@H](C(=O)O)[C@@H](O)[C@H](O)[C@H]2O[C@@H]2O[C@H](C(=O)O)[C@@H](O)[C@H](O)[C@H]2O)CC[C@]2(C)[C@H]3C(=O)C=C4[C@@H]5C[C@@](C)(C(=O)O)CC[C@]5(C)CC[C@@]4(C)[C@]3(C)CC[C@@H]12 [GR, Glycyrrhizic Acid, Monoammonium salt] = 111 µg/mL
CC(C)=CCC/C(C)=C/CO [GRA1, trans-3,7-dimethyl-2,6-octadien-1-ol] = 6 µg/mL
CC1CCC(C(C)C)C(O)C1 (stereo not shown) [Menthol] = 22 µg/mL
